Test system: NCI-H226 lung
procedure_text: NCI-60 one-dose screen, 48 h
protocol_conditions: 10 µM unless noted
About 83,000 compounds went through this panel and 20% of them were active in at least one assay; those are over-represented in the sample as a whole. Active and inactive are the calls of the source. How the source made its calls: active means growth percent below 10; inactive means the rest.
Classes used: Yes for active, No for inactive

compound=COc1ccc2c(c1)c(CC(=O)[Se]CC(=O)O)c(C)n2C(=O)c1ccc(Cl)cc1 label=No
compound=N#Cc1cccc(NC(=O)c2cc(-c3ccc(F)cc3F)ccc2O)c1 label=No
compound=Cc1ccc(-c2nn(-c3ccccc3)cc2/C=C/C(=O)c2ccc(NC(=O)CCCCCCC(=O)NO)cc2)cc1 label=No
compound=C=CCN(C)S(=O)(=O)/N=C1\NC(=O)NC1=C(Cl)Cl label=No
compound=Nn1c(N/N=C/c2nc3ccccc3s2)n[nH]c1=S label=No
compound="CC(C)(C)CC(C)(C)n1nnnc1C(Nc1nccs1)c1cc2cccc3ccc4cccc1c4c32 (stereo not drawn)" label=Yes
compound=CCCCCc1ccc(S(=O)(=O)Nc2cccc(-c3csc(NC(=O)CN4CCN(C)CC4)n3)c2)cc1 label=No
compound="COc1cc2nc(Cl)nc(Nc3cccc(C4=Nc5c(N)nc(N)nc5NC(c5ccccc5)C4)c3)c2cc1OC (stereo not drawn)" label=No
compound=COc1ccc(C(=O)c2c(N)c(C#N)cn2-c2ccccc2OC)cc1 label=No
compound=Cc1c(F)cc(C(N)=O)cc1NCC(=O)Nc1ccc([N+](=O)[O-])cc1 label=No
compound=CCN(CC)c1ccc(NC2=C(Cl)C(=O)c3nc(C)ccc3C2=O)cc1 label=No
compound="COc1c(N2CC3CCCNC3C2)c(F)cc2c(=O)c(C(=O)N/N=C/c3ccc(Br)cc3)cn(C3CC3)c12 (stereo not drawn)" label=No
compound=O=C(CN1CCN(c2cc(=O)n(-c3ccccc3)c3ccccc23)CC1)Nc1nc(-c2ccc(Cl)cc2)cs1 label=No
compound=O=S(=O)(NCCNc1nccc(-n2cnc3ccccc32)n1)c1ccc(Cl)cc1 label=No
compound=CC1=N[C@@H]2CN(C(=O)OC(C)(C)C)C[C@@H]2n2c1cc1ccccc1c2=O label=No
compound=C=CCn1c(SCC(=O)Nc2ccc(C(=O)/C=C/c3cc(OC)c(OC)c(OC)c3)cc2)nnc1-c1c[nH]c2ccccc12 label=Yes
compound=COc1cc(OC)cc(C(=O)Nc2cccc(C#Cc3cccc4[nH]nc(N)c34)c2)c1 label=No
compound=COc1ccccc1-n1cc(C#N)c(N)c1C(=O)c1ccc(C)cc1 label=No
compound="C[C@@H]1C[C@H]2C(=O)O[C@@H](C)C(NC(=O)[C@H](Cc3cc(F)cc(F)c3)NC(=O)Nc3ccc(C4CC4)cc3F)C(=O)N3CCC[C@H]3C(=O)N3CCCC[C@H]3C(=O)N[C@@H](CO)C(=O)N2C1 (stereo partly drawn)" label=Yes
compound=COC(=O)C[Se]C(=O)Cc1c(C)n(C(=O)c2ccc(Cl)cc2)c2ccc(OC)cc12 label=No
compound=COc1ccc(-n2c(SCc3n[nH]c(=S)o3)nc3ccc(Cl)cc3c2=O)cc1 label=No
compound="COC(=O)/C=C/c1c(C2(C)NC(=O)c3ccccc3N2)c(=O)oc2ccc(Cl)cc12 (stereo not drawn)" label=No
compound=COc1ccc2c(c1)c(-c1cc(N)n3nc(-c4cn(C)c5ccc(OC)cc45)cc3n1)cn2C label=No
compound="COc1cc2c(cc1OC)C(Sc1ccc(F)cc1)c1c(nc(N)c(C#N)c1N)O2 (stereo not drawn)" label=Yes
compound=CN1CCN(Cc2ccc(NC(=O)c3cncc(C#Cc4cnn5cccnc45)c3)cc2C(F)(F)F)CC1 label=Yes
compound=NC(N)=Nc1ccc(Oc2cccc(Nc3ccc(Cl)c(C(F)(F)F)c3)c2)cc1 label=No
compound=C=CCn1c(SCC(=O)Nc2ccc(C(=O)/C=C/c3ccc(C)cc3)cc2)nnc1-c1c[nH]c2ccccc12 label=No
compound=CCCCCCCn1cc2c(N[C@H](C)c3ccccc3)ncnc2n1 label=No
compound=COc1cccc2c1CN(C(=O)c1ccc(O)c(C(=O)N3Cc4ccc(OCCC[P+](c5ccccc5)(c5ccccc5)c5ccccc5)cc4C3)c1)C2 label=No
compound=COc1cc(-c2nn(C(C)(C)C)cc2-c2ccnc(NCCCNS(=O)(=O)c3ccc(F)cc3)n2)ccc1Cl label=No
compound=COc1cc(-c2nn(C(C)(C)C)cc2-c2ccnc(NCCCNS(=O)(=O)c3cccc(F)c3)n2)ccc1Cl label=No
compound=C#CCn1cccc1CNc1ccc(OC)cc1 label=Yes
compound=COc1ccc(NC(=O)CSc2nnc(-c3ccc4nc(-c5ccc(OC)c(OC)c5)[nH]c4c3)o2)cc1OC label=No

###

growth: recorded values
System: OVCAR-4 ovarian
procedure_text: NCI-60 one-dose screen, 48 h (100 = growth as untreated, 0 = no growth, -100 = all killed)
protocol_conditions: 10 µM unless noted
The panel holds about 83,000 compounds, 20% with a hit somewhere; the sample as a whole holds those more often. The source made the active and inactive calls. How the source made its calls: active means growth percent below 10; inactive means the rest.
readout_label: growth

smiles_code=CNC(=O)c1cc(Oc2ccc3nc(NC(=O)c4ccc(N5CCOCC5)c(C(F)(F)F)c4)sc3c2)ccn1 result="61.5% (inactive)"
smiles_code=CCCCCc1ccc(S(=O)(=O)Nc2cccc(-c3csc(NCCN4CCN(C)CC4)n3)c2)cc1 result="84.5% (inactive)"
smiles_code=COc1cc(/C=C/C(=O)c2ccc(NC(=O)CSc3nnc(-c4ccc(-c5nc6ccc(Cl)cc6[nH]5)cc4)o3)cc2)cc(OC)c1OC result="102% (inactive)"
smiles_code=COc1cc(-c2nc3sccn3c2-c2ccnc(S(C)(=O)=O)n2)ccc1F result="98.2% (inactive)"
smiles_code=COc1ccc(-c2nc3cccc(O)c3c(=O)n2Cc2ccccc2)cc1COc1ccc(NC(C)=O)cc1 result="83% [3 µM] (inactive)"

###

Tested on: 786-0 renal
procedure_text: NCI-60 one-dose screen, 48 h (100 = growth as untreated, 0 = no growth, -100 = all killed)
protocol_conditions: 10 µM unless noted
Description: Cells are grown in 96 well plates and exposed to the test compound for 48 hours. Compounds are tested at a single concentration, which is 10^-5 M for most compounds. The reported endpoint is percent growth (GI% or GIPRCNT), where numbers from 0 - 100% represent growth inhibition, and numbers from -100% - 0 represent cell death. For example, a value of 40 represents 60% growth inhibition. A value of 0 means no net growth occurred over the course of the experiment. […]
The panel holds about 83,000 compounds, 20% with a hit somewhere; the sample as a whole holds those more often. The source made the active and inactive calls. Rule for the calls: active = growth percent below 10; inactive = the rest.
readout_label: growth

molecule=COc1ccc([C@H]2[C@H](O)C(=O)N2c2cc(OC)c(OC)c(OC)c2)cc1F result="12% (inactive)"
molecule=Cc1cc2ncc(-c3cc4ccccc4c(N4CCN(C)CC4)n3)nc2cc1C result="61.3% (inactive)"
molecule=CNC(=O)c1cc(-c2ccc(NS(=O)(=O)c3ccc(C)cc3)cc2)nc2cccnc12 result="110% (inactive)"
molecule=C=CCn1c(SCC(=O)Nc2ccc(C(=O)/C=C/c3ccc(Cl)cc3)cc2)nnc1-c1c[nH]c2ccccc12 result="106% (inactive)"
molecule="CCNC(=O)N1CCc2cc(OC)c(OCCc3ccc(OC)c(N)c3)cc2C1c1ccc(C)cc1C (stereo not drawn)" result="13.3% (inactive)"
molecule=C#CCC#CCN1CCC[C@H]1C(=O)NCC(=O)OC result="101% (inactive)"
molecule="CC(=O)C1=C(C)NC(NN)=NC1c1cccc(Cl)c1 (stereo not drawn)" result="104% (inactive)"
molecule=COc1ccc(-c2nn(-c3ccc(S(C)(=O)=O)cc3)cc2/C=N/O)cc1 result="105% (inactive)"
molecule="COC(=O)c1[nH]nc2c1C1(C(=O)N(C)c3ccccc31)C(C#N)=C(N)O2 (stereo not drawn)" result="102% (inactive)"
molecule=N#Cc1cnc2ccc(-c3cnc(N)nc3)cc2c1N1CCc2cc(F)c(Cl)cc21 result="3.11% (active)"
molecule=CN1c2ccccc2Sc2cc(C=C(C#N)C#N)ccc21 result="105% (inactive)"
molecule=C[C@@H](Nc1c(C#N)cnc2ccc(-c3cnc(Cl)c(NS(C)(=O)=O)c3)cc12)c1ccccc1 result="4.25% (active)"
molecule="C=C1CC[C@@H]2[C@]3(C)COC(c4ccccc4)O[C@@H]3CC[C@@]2(C)[C@@H]1C/C=C1/C(=O)OC[C@H]1O (stereo partly drawn)" result="111% (inactive)"

###

Test system: OVCAR-4 ovarian
procedure_text: NCI-60 one-dose screen, 48 h (100 = growth as untreated, 0 = no growth, -100 = all killed)
protocol_conditions: 10 µM unless noted
About 83,000 compounds went through this panel and 20% of them were active in at least one assay; those are over-represented in the sample as a whole.
Threshold rule: growth greater than or equal to 50% is rule met; below that, rule not met.

compound="Cc1ccc2c(c1)C13C(=C2Br)CCCN1C(=O)c1ccccc13 (stereo not given)" label="rule met"
compound="Cc1ccc2sc3c(c2c1)OC(N)=C(C#N)C3c1cccc(F)c1 (stereo not given)" label="rule not met"
compound=CCN(CC)CCn1c2ccc(O)cc2c2sc3cc(OC)ccc3c(=O)c21 label="rule not met"
compound="CCc1cccc2c3c(sc12)C(c1ccc(Cl)cc1)C(C#N)=C(/N=C/c1ccc(Cl)cc1)O3 (stereo not given)" label="rule met"
